assay: qHTS Primary assay for Inhibitors of Plasmodium falciparum Dd2 growth in vitro; also: nearly all actives have a fitted effect of over 65% in size; details: P. falciparum Dd2 growth, SYBR Green, 72 h; series mostly up to 28.9 µM
Screen size: about 120,000 compounds; about 5,300 (4.4%) were called active. Inconclusive results (about 22%) are left out. Calls follow the shape of the dose curve; as a rule, active = well fitted inhibition curve with a large enough effect; inconclusive = small, poorly fitted or top-dose-only effect; inactive = no such curve, though single readings can be large or run the other way. The list comes from a sample in which actives are over-represented; it also holds close analogues and randomly drawn compounds.
Pick from active, inactive when you respond.

COc1ccccc1OCCNC(=O)CCc1cc2cc(C)ccc2[nH]c1=O :: inactive

Test call, this molecule: "Oc1ccccc1CNC1(Cc2cc(CN3CCOCC3)on2)COC1"
inactive

====

experiment: qHTS Primary assay for Inhibitors of Plasmodium falciparum Dd2 growth in vitro; also: nearly all actives have a fitted effect of over 65% in size; conditions: P. falciparum Dd2 growth, SYBR Green, 72 h; series mostly up to 28.9 µM
The whole screen tested about 120,000 compounds, of which about 5,300 (4.4%) were called active. About 22% were inconclusive and are not listed. The call rests on the fitted dose curve; in most records, active means well fitted inhibition curve with a large enough effect; inconclusive means small, poorly fitted or top-dose-only effect; inactive means no such curve, though single readings can be large or run the other way. This excerpt belongs to a sample that is enriched for actives.
Please answer using one outcome listed in active, inactive

Cc1oc2ccn(Cc3ccccc3F)c(=O)c2c1C(=O)NCc1cccnc1 :: inactive
COc1cccc(NC(=O)CN2C(=O)c3ccccc3Sc3ncccc32)c1 :: inactive
CCN1CC2(CCN(C(=O)c3cc4c(nc3OC)CCC4)CC2)OC1=O :: inactive
CCc1cccc(NC(=O)CN2C(=O)NC(c3ccc(Cl)cc3)C3=C2COC3=O)c1 (stereo not given) :: inactive
COc1ccc(-n2nc(C)c([C@@H]3C=C[C@@H](NC(=O)Nc4ccccc4)C3)c2C)cc1 :: active

Please share the test call associated with "COc1ccc(NC(=O)Cn2ccn3nc(-c4ccc(F)cc4)c(CO)c3c2=O)c(OC)c1" .
inactive

Could you please tell me the result logged for "O=[S+]([O-])(Nc1cccnc1)c1ccc2c(c1)OCCN(Cc1ccc(F)cc1)C2" in this assay?
inactive

Test call, this molecule: "CC1=C(c2ccc(Cl)cc2)S(=O)(=O)N=C1N1CCN(c2cc(C)ccc2C)CC1"
inactive

For Cc1cc(C(=O)NCC2Cn3cccc3C(=O)N2C)nn1C (stereo not given) , what call appears in the results of this test?
inactive

I'd appreciate the recorded outcome for "CCOc1cc(C(=O)N2CCC[C@H]2c2nc(-c3ccc(F)cc3)no2)cc(OCC)c1OCC" from this test.
inactive
